Target: hLPA5 (Homo sapiens)
Sequence (Q9H1C0 whole entry): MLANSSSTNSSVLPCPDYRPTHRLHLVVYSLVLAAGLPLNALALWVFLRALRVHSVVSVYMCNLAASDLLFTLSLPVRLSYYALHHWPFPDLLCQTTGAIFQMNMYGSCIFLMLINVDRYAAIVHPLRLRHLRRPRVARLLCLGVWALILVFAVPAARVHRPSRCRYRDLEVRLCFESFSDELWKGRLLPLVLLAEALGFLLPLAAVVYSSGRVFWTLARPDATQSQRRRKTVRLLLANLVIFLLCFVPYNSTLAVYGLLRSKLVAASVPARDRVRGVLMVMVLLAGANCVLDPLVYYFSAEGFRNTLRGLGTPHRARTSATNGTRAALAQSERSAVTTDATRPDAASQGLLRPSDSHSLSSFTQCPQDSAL
Experiment: LPA5 calcium mobilization assay
Type: cell-based
Settings: RH7777-hLPA5 cells; against EC80 (30 nM) of hexadecyl LPA 16:0; mean ± SEM
readoutName: IC50, nM

Fill in reported IC50, nM for this entry: COc1cc2c(C(=O)N3CCCCC3)cn(-c3cccc(C(=O)N(C)C)c3)c(=O)c2cc1OC [Compound 51]
completely inactive

State, in one line, measured IC50, nM of COc1cc2c(C(=O)N3CCC3)cn(-c3cccc(N(C)C)c3)c(=O)c2cc1OC [Compound 13]
inactive

Read the entry COc1cc2c(C(=O)N3CCCC3)cn(-c3cccc(N(C)C)c3)c(=O)c2cc1OC [Compound 14] and write its reported IC50, nM.
inactive

Give me measured IC50, nM, please, for this compound: COc1cc2c(C(=O)N3CCCCC3)cn(-c3cccc(C(N)=O)c3)c(=O)c2cc1OC [Compound 50]
completely inactive

Please indicate IC50, nM recorded for COc1cc2c(C(=O)N(C)Cc3ccncc3)cn(-c3cccc(N(C)C)c3)c(=O)c2cc1OC [Compound 11]
inactive

Supply measured IC50, nM of COc1cc2c(=O)n(-c3cccc(N(C)C)c3)cc(C(=O)N3CCC(F)CC3)c2cc1OCc1cccc2ccccc12 [Compound 44] in your reply.
total loss of activity

Using the record for COc1cc2c(C(=O)N(C)C)cn(-c3cccc(N(C)C)c3)c(=O)c2cc1OC [Compound 10] , state its measured IC50, nM.
inactive

Further cases:
Answer with reported IC50, nM of COc1cc2c(=O)n(-c3cccc(N(C)C)c3)cc(C(=O)N3CCC(F)CC3)c2cc1OCc1ccccn1 [Compound 45]
total loss of activity

All figures here come from paper PMC10155261.
